system: HT‐29; assay: Cytotoxicity, mitochondrial activity; type: cell-based; conditions: Homo sapiens, HT-29, 72 h, read-out: IC50 MTT
pIC50: −log10 of the molar value.
Label condition not met if pIC50 falls below 5; label condition met in every other case.

compound	label-class
COc1cc(/C=C/C(=O)CC(=O)/C=C/c2ccc(O)c(OC)c2)ccc1O [Cur, curcumin, reference compound]	condition not met
O=C(/C=C(O)/C=C/c1cccs1)/C=C/c1c[nH]c2ccccc12	condition met
C(=C\c1c[nH]c2ccccc12)/c1cc(/C=C/c2cccs2)[nH]n1	condition met
COc1cc(/C=C/C(=O)/C=C(O)/C=C/c2cccc3cnccc23)ccc1O	condition met
O=C(/C=C(O)/C=C/c1ccc2ccccc2n1)/C=C/c1c[nH]c2ccccc12	condition not met

Inquiry: Identify whether the reported pIC50 of the following compound is 5 or greater: `COc1cc(/C=C/c2cc(/C=C/c3ccncc3)[nH]n2)ccc1O`
Reply text: condition not met

Inquiry: I'd appreciate it if you could say whether `COc1cc(/C=C/c2cc(/C=C/c3cccnc3)[nH]n2)ccc1O` has pIC50 at least equal to 5.
Reply text: condition not met

Inquiry: Could you please find out whether `COc1cc(/C=C/C(=O)/C=C(O)/C=C/c2ccnc3ccccc23)ccc1O` has pIC50 that meets 5 or exceeds it?
Reply text: condition not met

====

system: Caco‐2; experiment: Intracellular ROS assay; assay type: cell-based; conditions: Homo sapiens, Caco-2, read-out: Intracellular ROS, percentage compared to the untreated control cells (ROS/SRB)
Let's look at some molecules and their measured activity at 1 µM.
The reply should be a number in %, with the unit left off.

COc1cc(/C=C/C(=O)/C=C(O)/C=C/c2ccccn2)ccc1O 92.7
COc1cc(/C=C/C(=O)/C=C(O)/C=C/c2cccc3cnccc23)ccc1O 92.8
O=C(/C=C(O)/C=C/c1ccncc1)/C=C/c1c[nH]c2ccccc12 101

Inquiry: Output activity at 1 µM of `COc1cc(/C=C/C(=O)/C=C(O)/C=C/c2c[nH]c3ccccc23)ccc1O`
Reply text: 102

Inquiry: Fill in activity at 1 µM for record `O=C(/C=C(O)/C=C/c1cccs1)/C=C/c1c[nH]c2ccccc12`
Reply text: 238

====

test: Water solubility, shake flask method, 0.1 M phosphate buffer pH 6.8; assay type: physicochemical; conditions: 37 °C, pH 6.8, aqueous buffer, thermodynamic from solid
Please use TRUE whenever solubility at 90 min is not below 9 µM, and FALSE whenever it is.

compound	label-class
O=C(/C=C(O)/C=C/c1ccc2ccccc2n1)/C=C/c1c[nH]c2ccccc12 [3 k]	FALSE

Inquiry: Can O=C(/C=C(O)/C=C/c1ccccn1)/C=C/c1c[nH]c2ccccc12 [3 j] be said to have solubility at 90 min at or above 9 µM?
Reply text: TRUE

Inquiry: Test whether the compound O=C(/C=C(O)/C=C/c1cccnc1)/C=C/c1c[nH]c2ccccc12 [3 h] records solubility at 90 min of 9 µM or higher.
Reply text: FALSE

Inquiry: Please tell me: is the compound COc1cc(/C=C/C(=O)/C=C(O)/C=C/c2c[nH]c3ccccc23)ccc1O [3 g] at or over 9 µM in terms of solubility at 90 min?
Reply text: FALSE

Inquiry: Textbook exercise: given the entry COc1cc(/C=C/c2cc(/C=C/c3ccncc3)[nH]n2)ccc1O [4 b] , state whether its solubility at 90 min is greater than or equal to 9 µM.
Reply text: TRUE

Inquiry: API: above_or_equal(metric=solubility at 90 min, cutoff=9 µM) for item C(=C\c1c[nH]c2ccccc12)/c1cc(/C=C/c2cccs2)[nH]n1 [4 d]
Reply text: TRUE

Inquiry: Does O=C(/C=C(O)/C=C/c1ccncc1)/C=C/c1c[nH]c2ccccc12 [3 i] have a reported solubility at 90 min of at least 9 µM?
Reply text: FALSE

Inquiry: Answer whether solubility at 90 min of COc1cc(/C=C/C(=O)CC(=O)/C=C/c2ccc(O)c(OC)c2)ccc1O [Cur, curcumin, reference compound] is greater than or equal to 9 µM.
Reply text: FALSE

Inquiry: Determine whether this compound has solubility at 90 min no lower than 9 µM: COc1cc(/C=C/C(=O)/C=C(O)/C=C/c2cccnc2)ccc1O [3 a]
Reply text: FALSE

Inquiry: In plain terms: is recorded solubility at 90 min at least 9 µM for COc1cc(/C=C/C(=O)/C=C(O)/C=C/c2ccnc3ccccc23)ccc1O [3 d] ?
Reply text: FALSE

Inquiry: Please check the record O=C(/C=C(O)/C=C/c1ccc[nH]1)/C=C/c1c[nH]c2ccccc12 [3 l] and state if its solubility at 90 min is at or above 9 µM.
Reply text: TRUE

Inquiry: Entry COc1cc(/C=C/C(=O)/C=C(O)/C=C/c2ccc[nH]2)ccc1O [3 f] : is its solubility at 90 min no less than 9 µM?
Reply text: TRUE

Inquiry: Say whether COc1cc(/C=C/C(=O)/C=C(O)/C=C/c2ccccn2)ccc1O [3 b] shows solubility at 90 min of 9 µM or more.
Reply text: TRUE

Inquiry: Evaluate COc1cc(/C=C/c2cc(/C=C/c3cccc4cnccc34)[nH]n2)ccc1O [4 c] : solubility at 90 min at minimum 9 µM?
Reply text: FALSE

Inquiry: Test whether the compound COc1cc(/C=C/C(=O)/C=C(O)/C=C/c2cccc3cnccc23)ccc1O [3 e] records solubility at 90 min of 9 µM or higher.
Reply text: FALSE

Inquiry: Check the entry O=C(/C=C(O)/C=C/c1cccs1)/C=C/c1c[nH]c2ccccc12 [3 m] : does solubility at 90 min equal or exceed 9 µM?
Reply text: FALSE
